Assign pIC50 to each entry below.
TEST_SYSTEM: human CD73 (Homo sapiens, UniProt P21589)
Sequence (P21589 27-549): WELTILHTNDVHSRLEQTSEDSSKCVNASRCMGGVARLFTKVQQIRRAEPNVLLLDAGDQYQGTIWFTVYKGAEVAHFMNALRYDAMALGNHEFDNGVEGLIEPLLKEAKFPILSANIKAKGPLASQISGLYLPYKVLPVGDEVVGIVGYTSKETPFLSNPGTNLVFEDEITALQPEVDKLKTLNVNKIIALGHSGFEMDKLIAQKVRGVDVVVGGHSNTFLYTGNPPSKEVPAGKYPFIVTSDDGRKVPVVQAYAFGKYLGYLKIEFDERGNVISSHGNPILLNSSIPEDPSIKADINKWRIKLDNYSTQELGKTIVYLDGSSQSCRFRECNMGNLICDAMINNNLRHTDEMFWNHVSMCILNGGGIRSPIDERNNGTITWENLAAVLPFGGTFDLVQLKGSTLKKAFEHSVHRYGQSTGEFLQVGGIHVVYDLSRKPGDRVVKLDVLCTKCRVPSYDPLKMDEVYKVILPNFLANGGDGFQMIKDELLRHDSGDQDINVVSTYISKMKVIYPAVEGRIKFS
EXPERIMENT_SUMMARY: Inhibition of ecto-5′-nucleotidase (CD73) activity in CHO-CD73 cells, phosphate colorimetric readout
ASSAY_SETUP: CHO-K1 cells stably transfected with human CD73, 2500 cells per well, 25 μM AMP substrate, 50 minutes incubation at 37° C.; read-out: Potency: CD73 IC50
pIC50: −log10 of the molar value.

(Q) Input CC(C)OC(=O)OCOP(=O)(O)CP(=O)(OCOC(=O)OC(C)C)OC[C@H]1O[C@@H](n2ncc3c(NC4CCCC4)nc(Cl)nc32)[C@H](O)[C@@H]1O (stereo partly drawn) , output reported pIC50.
(A) < 6.00

(Q) Input "CC(C)S(=O)(=O)c1nc(NCc2ccccc2)c2ncn([C@@H]3O[C@H](COP(=O)(O)CP(=O)(O)O)[C@@H](O)[C@H]3O)c2n1" , output reported pIC50.
(A) 6.00 to 7.00

(Q) Input "Cc1nc(NC2CCCC2)c2ncn([C@@H]3O[C@H](COP(=O)(O)CP(=O)(O)O)[C@@H](O)[C@@H]3F)c2n1" , output reported pIC50.
(A) > 7.00
